biological target: rNTS2 receptor (Rattus norvegicus); construct: expressed in transfected cells; host or cells: DRG-F11 cells, transient transfection, membranes; experiment: Competitive radioligand binding assay on the rNTS2 receptor; conditions: 1 μM macrocycle dose; read-out: NTS2 % displ at 1 μM (radiolabeled neurotensin displaced)
Sequence (Q63384 whole entry): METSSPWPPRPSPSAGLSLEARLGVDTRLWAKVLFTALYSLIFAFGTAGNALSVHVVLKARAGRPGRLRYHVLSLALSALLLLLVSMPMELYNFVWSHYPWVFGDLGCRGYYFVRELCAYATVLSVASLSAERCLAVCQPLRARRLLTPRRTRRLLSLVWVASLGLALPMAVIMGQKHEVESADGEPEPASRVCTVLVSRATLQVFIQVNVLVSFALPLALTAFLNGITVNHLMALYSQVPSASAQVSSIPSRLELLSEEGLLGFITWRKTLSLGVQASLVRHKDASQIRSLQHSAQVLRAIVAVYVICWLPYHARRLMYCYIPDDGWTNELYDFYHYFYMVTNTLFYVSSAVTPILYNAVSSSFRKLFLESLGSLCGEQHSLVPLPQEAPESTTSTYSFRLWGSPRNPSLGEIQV
readout type: inhibition at 1 µM (%)

Use the examples below as a reference point.
CCC(C)[C@H](NC(=O)[C@@H]1Cc2ccc(O)c(c2)CC=CCCCNCCCC[C@H](N)C(=O)N[C@@H](CCCCN)C(=O)N2CCC[C@H]2C(=O)N1)C(=O)N[C@@H](CC(C)C)C(=O)O (stereo partly shown) [Compound 10, c[K(pentenyl)KPY(All)]IL]
105
CCC(C)[C@H](NC(=O)[C@H](Cc1ccc(O)cc1)NC(=O)[C@@H]1CCCN1C(=O)[C@H](CCCNC(=N)N)NC(=O)[C@@H](N)CCCNC(=N)N)C(=O)N[C@@H](CC(C)C)C(=O)O (stereo partly shown) [NT 8-13, RRPYIL, reference compound]
100

(P) CCC(C)[C@H](NC(=O)[C@@H]1Cc2ccc(O)c(c2)CC=CCNCC[C@H](N)C(=O)N[C@@H](CCCCN)C(=O)N2CCC[C@H]2C(=O)N1)C(=O)N[C@@H](CC(C)C)C(=O)O (stereo partly shown) [Compound 8, c[Dab(All)KPY(All)]IL]
(Q) CCC(C)[C@H](NC(=O)[C@@H]1Cc2ccc(O)c(c2)CC=CCNCCCC[C@@H](N)C(=O)N[C@@H](CCCCN)C(=O)N2CCC[C@H]2C(=O)N1)C(=O)N[C@@H](CC(C)C)C(=O)O (stereo partly shown) [Compound 4, c[K(All)KPY(All)]IL]
Request: // task: argmin of inhibition at 1 µM over [ P , Q ] Identify your selection by its label.
Response: P
